test system: WPMY1-CANX-COX4; assay: phenotypically active (imaging signature differs from DMSO and reproducible) at any of 0.3-9 uM (binary (1 = active, 0 = inactive)); higher = active; settings: treatment time: 24 h
Structures can show the parent of a compound that is named as a salt.
Please provide measured phenotypically active for the entries that follow.
Respond with the number and no other words.

Ask: Consider the molecule "O=C1Cc2c([nH]c3ccc(Br)cc23)-c2ccccc2N1" and give its measured phenotypically active.
Reply: 1

Ask: Item "CCNC(=O)c1noc(-c2cc(C(C)C)c(O)cc2O)c1-c1ccc(CN2CCOCC2)cc1" has what recorded phenotypically active?
Reply: 1

Ask: Query: phenotypically active; subject: "CN1CC[C@]23c4ccccc4N[C@H]1[C@]21CCN(C)[C@H]3Nc2ccccc21"
Reply: 0

Ask: If you can, please state the reported phenotypically active value of "Cc1cc2c(s1)Nc1ccccc1N=C2N1CCN(C)CC1" .
Reply: 0

Ask: Recorded phenotypically active for "COc1ccc(-c2ccc3ncc4c(c3c2)n(-c2ccc(N3CCNCC3)c(C(F)(F)F)c2)c(=O)n4C)cn1" , please?
Reply: 1

Ask: Find the recorded phenotypically active belonging to NC(=O)c1cccnc1 [Nicotinamide] and report it.
Reply: 0

Ask: Reported phenotypically active for "CN1[C@@H]2CC[C@H]1C[C@@H](OC(c1ccccc1)c1ccccc1)C2" : what is it?
Reply: 1

Ask: // returns reported phenotypically active for input "NC(=O)c1ccc(I)c([N+](=O)[O-])c1"
Reply: 0

Ask: Entry under review: Fc1ccccc1CNCc1ccc(-c2ccnc3[nH]ccc23)cc1 [OXA 06 dihydrochloride] . Reported phenotypically active?
Reply: 1

Ask: Which phenotypically active is reported for this molecule? Cc1noc(C)c1-c1cc(O)cc(C(O)c2ccccc2)c1 (centres undefined)
Reply: 1

Ask: Reported phenotypically active, molecule "CC(=O)c1c(C)c2cnc(Nc3ccc(N4CCNCC4)cn3)nc2n(C2CCCC2)c1=O" : ____
Reply: 1

Ask: Could you tell me which phenotypically active is on file for "COc1cc2c(cc1NS(=O)(=O)c1ccc(Br)cc1C)n(C)c(=O)n2C" ?
Reply: 0

Ask: Look up phenotypically active for this molecule: C[C@]12CCC(=O)C=C1CC[C@@H]1[C@@H]2[C@@H](O)C[C@@]2(C)[C@H]1CC[C@]2(O)C(=O)CO [hydrocortisone]
Reply: 0

Ask: Which value of phenotypically active has been reported for "N=C(N)c1ccc(OCCCCCOc2ccc(C(=N)N)cc2)cc1" in the records?
Reply: 0

Ask: Please give the measured phenotypically active for this molecule: C[N+](C)(CCCCCC[N+](C)(C)CCCN1C(=O)c2ccccc2C1=O)CCCN1C(=O)c2ccccc2C1=O [W-84 dibromide]
Reply: 0

Ask: Which value of phenotypically active has been reported for "CC(=O)N[C@@H]1[C@@H](O[C@H](C)C(=O)O)[C@H](O)[C@@H](CO)O[C@@H]1O" in the records?
Reply: 0

Ask: # lookup: phenotypically active of CC(C)[C@H]1CC[C@H](C(=O)N[C@H](Cc2ccccc2)C(=O)O)CC1 [nateglinide]
Reply: 0

Ask: Look up phenotypically active for this molecule: "CNC(=O)c1ccc(C)c(-n2c(C)cc(OCc3ccc(F)cc3F)c(Br)c2=O)c1"
Reply: 0

Ask: Returns the measured phenotypically active for the input molecule. Input: "Cc1cc(C)nc(SCC(=O)Nc2ncc(Cc3cccc4ccccc34)s2)n1"
Reply: 0
